Protocol Summary: Cytotoxicity against human HPC cells
Format: cell-based
The entries below come with measured CC50 values attached.
Endpoint: CC50 (µM)

Smiles Structure	Endpoint	Censoring Operator	Assay Result
CC[N+](C)(CC)CCOc1ccc(C(=O)N2C/C(=C\c3ccc(Cl)cc3)C(=O)/C(=C/c3ccc(Cl)cc3)C2)cc1.[I-]	CC50	>	400
Cl.O=C1/C(=C/c2ccc(Cl)cc2)CN(C(=O)c2ccc(OCCN3CCOCC3)cc2)C/C1=C\c1ccc(Cl)cc1	CC50	>	400
N[C@@H](Cc1ccc(N(CCCl)CCCl)cc1)C(=O)O	CC50	>	200
Cl.O=C1/C(=C/c2ccccc2)CN(C(=O)c2ccc(OCCN3CCCCC3)cc2)C/C1=C\c1ccccc1	CC50	=	12
Cc1ccc(/C=C2\CN(C(=O)c3ccc(OCCN4CCCCC4)cc3)C/C(=C\c3ccc(C)cc3)C2=O)cc1.Cl	CC50	=	15
CC[N+](C)(CC)CCOc1ccc(C(=O)N2C/C(=C\c3ccccc3)C(=O)/C(=C/c3ccccc3)C2)cc1.[I-]	CC50	=	170
